test system: zebrafish embryos; test: animal or person; type: in vivo, zebrafish (Danio rerio); details: Danio rerio, 48 hpf, nominal, log10; read-out: log EC50;nom (mFET) (converted)
MEASUREMENT TYPE: EC50 (nM)
# unit: nM | format: bare number

Query :: Look up and report measured EC50 for this entry: CC1(C)C(C=C(Cl)c2ccc(Cl)cc2)C1C(=O)OC(C#N)c1ccc(F)c(Oc2ccccc2)c1 (stereo not shown) [Flumethrin, flumethrin]
Result :: 275

Query :: Supply measured EC50 of COC(=O)Nc1nc2ccc([S+]([O-])c3ccccc3)cc2[nH]1 (stereo not shown) [Oxfendazole, oxfendazole] in your reply.
Result :: 24500

Query :: Please report EC50 for the following molecule: CCC(C)C1OC2(CCC1C)CC1CC(CC=C(C)C(OC3CC(OC)C(OC4CC(OC)C(O)C(C)O4)C(C)O3)C(C)C=CC=C3COC4C(O)C(C)=CC(C(=O)O1)C34O)O2 (stereo not shown) [Ivermectin, ivermectin]
Result :: 1700

Query :: Answer with the recorded EC50 for the molecule listed here: COC(=O)Nc1nc2ccc(Sc3ccccc3)cc2[nH]1 [Fenbendazole, fenbendazole]
Result :: 77.6

Query :: Input CO[C@H]1C[C@H](O[C@H]2[C@H](C)O[C@@H](O[C@@H]3/C(C)=C/C[C@@H]4C[C@@H](C[C@]5(C=C[C@H](C)[C@@H](C6CCCCC6)O5)O4)OC(=O)[C@@H]4C=C(C)[C@@H](O)[C@H]5OC/C(=C\C=C\[C@@H]3C)[C@]54O)C[C@@H]2OC)O[C@@H](C)[C@@H]1O [Doramectin, doramectin] , output reported EC50.
Result :: 1230

Query :: Provide only the value of recorded EC50 for CCCSc1ccc2nc(NC(=O)OC)[nH]c2c1 [Albendazole, albendazole]
Result :: 166

Query :: # return recorded EC50 for entry Cc1cc(-n2c(=O)[nH]c(=O)n(C)c2=O)ccc1Oc1ccc(SC(F)(F)F)cc1 [Toltrazuril, toltrazuril]
Result :: 12600
